Tested on: Candida albicans
Test: Antifungal activity against Candida albicans IOA-109 at 37 degC after 18 to 48 hrs; also: test concentration or dose not given here
Assay type: functional
MEASUREMENT_TYPE: diameter of the inhibition zone (DIZ) (mm)
One number for each entry, in mm.

// solved cases for diameter of the inhibition zone (DIZ) follow
{"QUERY_SMILES": "C=CCCCCCCCCc1nc2ccccc2[nH]1", "VALUE_UNIT": "mm", "diameter of the inhibition zone (DIZ)": 19}
{"QUERY_SMILES": "CCCCCC[C@@H](O)C/C=C\\CCCCCCCc1nc2ccccc2[nH]1", "VALUE_UNIT": "mm", "diameter of the inhibition zone (DIZ)": 19}
{"QUERY_SMILES": "CCCCC/C=C\\CC[C@H](O)CCCCCCCc1ncc[nH]1", "VALUE_UNIT": "mm", "diameter of the inhibition zone (DIZ)": 18}
{"QUERY_SMILES": "C=CCCCCCCCCc1ncc[nH]1", "VALUE_UNIT": "mm", "diameter of the inhibition zone (DIZ)": 19}

For each entry beneath this line, provide reported diameter of the inhibition zone (DIZ).
1. CCCCCCCC/C=C/CCCCCCCc1nc2cc([N+](=O)[O-])ccc2[nH]1
2. CCCCCCCC/C=C/CCCCCCCc1nc2c([nH]1)CCCC2
3. C=CCCCCCCCCc1nc2cc(Cl)ccc2[nH]1

1: 19; 2: 18; 3: 18

Answer for every listed entry: what is its diameter of the inhibition zone (DIZ)? The entries follow.
1. CCCCCCCC/C=C/CCCCCCCc1nc2cc(Cl)ccc2[nH]1
2. CCCCCCCC/C=C/CCCCCCCc1ncc[nH]1
3. CCCCC/C=C\CC[C@H](O)CCCCCCCc1nc2ccccc2[nH]1
4. C=CCCCCCCCCc1nc2cc([N+](=O)[O-])ccc2[nH]1

[18, 18, 18, 18]

Look at this molecule and give its reported diameter of the inhibition zone (DIZ). C=CCCCCCCCCc1nc2c([nH]1)CCCC2
18
